system name: T1, human CD98 (Homo sapiens, UniProt P08195)
T1 sequence (P08195 1-630 isoform P08195-1): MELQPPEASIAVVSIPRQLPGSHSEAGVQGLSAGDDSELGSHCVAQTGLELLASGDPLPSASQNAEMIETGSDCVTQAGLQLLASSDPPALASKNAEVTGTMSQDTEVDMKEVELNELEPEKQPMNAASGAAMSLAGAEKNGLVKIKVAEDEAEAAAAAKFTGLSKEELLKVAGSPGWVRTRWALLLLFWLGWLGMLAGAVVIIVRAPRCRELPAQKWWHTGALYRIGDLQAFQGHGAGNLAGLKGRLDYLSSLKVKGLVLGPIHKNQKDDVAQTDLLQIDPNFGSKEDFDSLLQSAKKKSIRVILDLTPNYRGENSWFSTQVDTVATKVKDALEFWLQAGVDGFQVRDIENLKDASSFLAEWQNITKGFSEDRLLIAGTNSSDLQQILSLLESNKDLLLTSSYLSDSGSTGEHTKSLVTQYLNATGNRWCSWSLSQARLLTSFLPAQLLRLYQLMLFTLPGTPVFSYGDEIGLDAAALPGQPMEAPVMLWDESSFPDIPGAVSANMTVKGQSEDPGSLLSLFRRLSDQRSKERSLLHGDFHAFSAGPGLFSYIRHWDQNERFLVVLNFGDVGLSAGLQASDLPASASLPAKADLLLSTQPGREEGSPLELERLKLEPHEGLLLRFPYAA
assay info: Binding of humanized antibodies to human CD98
condition description: humanized framework engineered antibodies
readout: binding to human CD98

huAb105: "heavy chain variable sequence of huAb105 is provided in SEQ ID NO: 111"; "light chain variable sequence ... in SEQ ID NO: 112" (antibody, V domains shown) VH: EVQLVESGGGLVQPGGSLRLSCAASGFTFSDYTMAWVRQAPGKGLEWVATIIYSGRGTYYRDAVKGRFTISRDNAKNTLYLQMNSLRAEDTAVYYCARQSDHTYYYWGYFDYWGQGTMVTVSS VL: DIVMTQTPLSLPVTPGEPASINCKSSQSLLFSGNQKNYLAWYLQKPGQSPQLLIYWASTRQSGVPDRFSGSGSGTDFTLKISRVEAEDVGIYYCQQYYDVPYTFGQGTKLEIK: maintained binding
huAb109: "heavy chain variable sequence of huAb109 is provided in SEQ ID NO: 116"; "light chain variable sequence ... in SEQ ID NO: 117" (antibody, V domains shown) VH: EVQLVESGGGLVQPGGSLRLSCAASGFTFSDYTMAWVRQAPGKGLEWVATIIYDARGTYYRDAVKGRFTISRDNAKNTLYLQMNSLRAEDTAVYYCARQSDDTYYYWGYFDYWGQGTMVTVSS VL: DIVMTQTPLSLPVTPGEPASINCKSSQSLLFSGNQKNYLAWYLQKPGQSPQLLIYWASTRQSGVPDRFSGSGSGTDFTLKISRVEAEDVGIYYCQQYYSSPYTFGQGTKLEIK: maintained binding
huAb101: "heavy chain variable sequence of huAb101 is provided in SEQ ID NO: 106"; "light chain variable sequence ... in SEQ ID NO: 107" (antibody, V domains shown) VH: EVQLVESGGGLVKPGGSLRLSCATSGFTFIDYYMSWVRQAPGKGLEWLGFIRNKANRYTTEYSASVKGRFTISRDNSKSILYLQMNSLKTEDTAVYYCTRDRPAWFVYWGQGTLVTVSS VL: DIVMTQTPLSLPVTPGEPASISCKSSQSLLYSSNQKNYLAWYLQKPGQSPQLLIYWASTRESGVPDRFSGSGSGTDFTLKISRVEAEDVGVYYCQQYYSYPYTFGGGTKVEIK: maintained binding
